Each entry below carries its reported pIC50.
- target or system: kappa opioid receptor (Mus musculus)
- Construct: from tissue; host or cells: mouse vas deferens (male Swiss Albino mice)
- run description: Ex-vivo KOR agonistic activity, electrically stimulated mouse vas deferens (MVD) model
// scale note: pIC50 = -log10(conc_M); give the bare number

Before answering, review these 10 worked examples.
INSERT INTO measurements (compound, attribute_measured, recorded_result) VALUES
  ('CCN(CC)S(=O)(=O)Nc1ccc(OCC(=O)N(C)[C@H](CN2CC[C@H](O)C2)c2ccccc2)c2cccnc12 [Compound 25]', 'pIC50', 8.09),
  ('CN(C(=O)COc1ccc(NS(C)(=O)=O)c2cccnc12)[C@H](CN1CC[C@H](O)C1)c1ccccc1 [Compound 6]', 'pIC50', 6.46),
  ('CN(C(=O)COc1cccc2c1NCCC2)[C@H](CN1CC[C@H](O)C1)c1ccccc1 [Compound 11]', 'pIC50', 8.80),
  ('COc1cccc([C@@H](CN2CC[C@H](O)C2)N(C)C(=O)COc2ccc(NS(C)(=O)=O)c3ncccc23)c1 [Compound 49]', 'pIC50', 8.72),
  ('CCOC(=O)COc1cccc([C@@H](CN2CC[C@H](O)C2)N(C)C(=O)COc2ccc(NS(C)(=O)=O)c3ncccc23)c1 [Compound 50]', 'pIC50', 6.66),
  ('CN1CCCc2c(OCC(=O)N(C)[C@H](CN3CC[C@H](O)C3)c3ccccc3)ccc(NS(C)(=O)=O)c21 [Compound 22]', 'pIC50', 8.09),
  ('CN(C(=O)COc1ccc(NS(C)(=O)=O)c2c1CCCN2)[C@H](CN1CC[C@H](O)C1)c1ccccc1 [Compound 15]', 'pIC50', 9.05),
  ('CN(C(=O)COc1ccc2ncccc2c1)[C@H](CN1CC[C@H](O)C1)c1ccccc1 [Compound 19]', 'pIC50', 6.87),
  ('CN(C(=O)COc1ccc2ccoc2c1)[C@H](CN1CC[C@H](O)C1)c1cccc(NS(C)(=O)=O)c1 [Compound 56]', 'pIC50', 7.06),
  ('CN(C(=O)COc1ccc2ccccc2n1)[C@H](CN1CC[C@H](O)C1)c1ccccc1 [Compound 1]', 'pIC50', 8.46);

Query CN(C(=O)COc1ccc(NS(C)(=O)=O)c2ncccc12)[C@H](CN1CC[C@H](O)C1)c1cccc([N+](=O)[O-])c1 [Compound 42] on kappa opioid receptor (Mus musculus); pIC50 returned: 7.30

Query CN(C(=O)COc1cccc2c1NCC2)[C@H](CN1CC[C@H](O)C1)c1ccccc1 [Compound 29] on kappa opioid receptor (Mus musculus); pIC50 returned: 6.83

Query CN(C(=O)COc1ccc(NS(C)(=O)=O)c2ncccc12)[C@H](CN1CC[C@H](O)C1)c1cccc(O)c1 [Compound 48] on kappa opioid receptor (Mus musculus); pIC50 returned: 8.89

Query CN(C(=O)COc1ccc(NS(C)(=O)=O)c2c1NCCC2)[C@H](CN1CC[C@H](O)C1)c1ccccc1 [Compound 14] on kappa opioid receptor (Mus musculus); pIC50 returned: 8.27

Query CN(C(=O)COc1ccc(NS(=O)(=O)N(C)C)c2c1CCCN2)[C@H](CN1CC[C@H](O)C1)c1ccccc1 [Compound 32] on kappa opioid receptor (Mus musculus); pIC50 returned: 9.31

====

- target or system: kappa opioid receptor (Homo sapiens, UniProt P41145)
- Construct: grown in complete Ham's F-12 medium
- Sequence (P41145 whole entry): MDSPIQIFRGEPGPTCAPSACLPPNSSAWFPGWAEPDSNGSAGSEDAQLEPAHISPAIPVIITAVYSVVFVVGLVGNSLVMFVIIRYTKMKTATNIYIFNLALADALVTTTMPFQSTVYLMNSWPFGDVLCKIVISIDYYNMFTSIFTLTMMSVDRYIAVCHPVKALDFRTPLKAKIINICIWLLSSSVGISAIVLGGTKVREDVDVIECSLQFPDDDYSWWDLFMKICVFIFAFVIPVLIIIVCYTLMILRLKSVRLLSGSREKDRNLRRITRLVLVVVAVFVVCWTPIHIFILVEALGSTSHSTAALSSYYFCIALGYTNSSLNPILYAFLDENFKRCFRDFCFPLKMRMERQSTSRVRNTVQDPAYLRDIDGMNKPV
- run description: Invitro KOR agonistic activity, cAMP based functional assay
- Type: cell-based
attribute measured: EC50 (nM)
Please give a number only; it is taken to be in nM.

Before answering, review these 6 worked examples.
INSERT INTO assay_data (compound, attribute_measured, recorded_result) VALUES
  ('CN(C(=O)COc1ccc(NCCO)c2ncccc12)[C@H](CN1CC[C@H](O)C1)c1ccccc1 [Compound 41]', 'EC50', 1.32),
  ('CCOC(=O)COc1cccc([C@@H](CN2CC[C@H](O)C2)N(C)C(=O)COc2ccc(NS(C)(=O)=O)c3ncccc23)c1 [Compound 50]', 'EC50', 0.001),
  ('CN(C(=O)COc1ccc2c(c1)OCC2)[C@H](CN1CC[C@H](O)C1)c1ccccc1 [Compound 18]', 'EC50', 0.07),
  ('CN(C(=O)COc1ccc2ccoc2c1)[C@H](CN1CC[C@H](O)C1)c1cccc([N+](=O)[O-])c1 [Compound 55]', 'EC50', 1.92),
  ('CN(C(=O)COc1ccc(NS(C)(=O)=O)c2cccnc12)[C@H](CN1CC[C@H](O)C1)c1ccccc1 [Compound 6]', 'EC50', 0.94),
  ('CN(C(=O)COc1ccc(NC(=O)CN)c2ncccc12)[C@H](CN1CC[C@H](O)C1)c1ccccc1 [Compound 33]', 'EC50', 0.006);

The reported value for CN(C(=O)COc1ccc(NS(=O)(=O)N(C)C)c2ncccc12)[C@H](CN1CC[C@H](O)C1)c1ccccc1 [Compound 24] in terms of EC50 is 0.055

The reported value for CN(C(=O)COc1ccc2c3c1CCCN3S(=O)(=O)N2)[C@H](CN1CC[C@H](O)C1)c1ccccc1 [Compound 30] in terms of EC50 is 900

The reported value for CN(C(=O)COc1ccc2ccccc2n1)[C@H](CN1CC[C@H](O)C1)c1ccccc1 [Compound 1] in terms of EC50 is 0.022

====

Each entry below carries its reported IC50.
- target or system: kappa opioid receptor (Mus musculus, UniProt P33534)
- Construct: from tissue; host or cells: mouse vas deferens (male Swiss Albino mice)
- Sequence (P33534 whole entry): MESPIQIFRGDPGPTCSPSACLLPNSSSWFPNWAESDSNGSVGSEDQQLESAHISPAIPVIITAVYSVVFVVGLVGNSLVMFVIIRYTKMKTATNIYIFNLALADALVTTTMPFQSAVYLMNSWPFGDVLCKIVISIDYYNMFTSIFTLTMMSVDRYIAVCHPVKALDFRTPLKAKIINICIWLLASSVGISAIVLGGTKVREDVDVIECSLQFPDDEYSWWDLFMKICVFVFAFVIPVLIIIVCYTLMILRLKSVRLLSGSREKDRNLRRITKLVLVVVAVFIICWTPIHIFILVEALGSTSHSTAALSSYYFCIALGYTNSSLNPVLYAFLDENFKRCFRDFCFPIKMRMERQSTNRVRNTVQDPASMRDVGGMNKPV
- run description: Ex-vivo KOR agonistic activity, electrically stimulated mouse vas deferens (MVD) model
Please give a number only; it is taken to be in nM.

Query CN(C(=O)COc1ccnc2ccc(NS(C)(=O)=O)cc12)[C@H](CN1CC[C@H](O)C1)c1ccccc1 on kappa opioid receptor (Mus musculus, UniProt P33534); IC50 returned: 1500

====

Each entry below carries its reported ED50.
- System: ICR mice
- run description: Acetic acid-induced writhing model
- Assay type: in vivo
- condition summary: Mus musculus, 0.25 h, acetic acid induced pain model, oral or i.v. administration, writhes for 15 min, read-out: In-vivo ED50
Please give a number only; it is taken to be in mg/kg.

INSERT INTO assay_data (smiles_code, attribute_measured, recorded_result) VALUES
  ('CN1CCCc2c(OCC(=O)N(C)[C@H](CN3CC[C@H](O)C3)c3ccccc3)ccc(NS(C)(=O)=O)c21', 'ED50', 2.5),
  ('CN(C(=O)COc1ccc(NS(C)(=O)=O)c2cccnc12)[C@H](CN1CC[C@H](O)C1)c1ccccc1', 'ED50', 1.1),
  ('CN(C(=O)COc1ccc(NS(C)(=O)=O)c2ncccc12)[C@H](CN1CC[C@H](O)C1)c1cccc(N)c1', 'ED50', 2.1),
  ('CN(C(=O)COc1ccc(NS(C)(=O)=O)c2ncccc12)[C@H](CN1CC[C@H](O)C1)c1cccc(NS(C)(=O)=O)c1', 'ED50', 2.3),
  ('CN(C(=O)COc1ccc2c(c1)CCCN2S(C)(=O)=O)[C@H](CN1CC[C@H](O)C1)c1ccccc1', 'ED50', 1.8);

The reported value for CN(C(=O)COc1ccc(NS(C)(=O)=O)c2c1CCCN2)[C@H](CN1CC[C@H](O)C1)c1ccccc1 in terms of ED50 is 0.92

The reported value for CN(C(=O)COc1ccc(NS(C)(=O)=O)c2ncccc12)[C@H](CN1CC[C@H](O)C1)c1cccc(O)c1 in terms of ED50 is 3.1

The reported value for CN(C(=O)COc1ccc(NS(=O)(=O)N(C)C)c2c1CCCN2)[C@H](CN1CC[C@H](O)C1)c1ccccc1 in terms of ED50 is 4.7

The reported value for CN(C(=O)COc1ccc2c(c1)OCO2)[C@H](CN1CC[C@H](O)C1)c1cccc(NS(C)(=O)=O)c1 in terms of ED50 is 1.9

====

- target or system: kappa opioid receptor (Homo sapiens, UniProt P41145)
- Construct: grown in complete Ham's F-12 medium
- run description: Invitro KOR agonistic activity, cAMP based functional assay
- Format: cell-based
attribute measured: log10 of EC50 (log10 of the value in nM)
Note the log scale: values are log10 of EC50 expressed in nM.

INSERT INTO measurements (smiles_code, attribute_measured, recorded_result) VALUES
  ('CN(C(=O)COc1nccc2ccccc12)[C@H](CN1CC[C@H](O)C1)c1ccccc1', 'log10 of EC50', -1.92);

The reported value for CN(C(=O)COc1ccc(NC(=O)CO)c2ncccc12)[C@H](CN1CC[C@H](O)C1)c1ccccc1 in terms of log10 of EC50 is -0.31

The reported value for CN(C(=O)COc1ccc(NS(C)(=O)=O)c2ncccc12)[C@H](CN1CC[C@H](O)C1)c1cccc(O)c1 in terms of log10 of EC50 is -1.68
